# assay: Metabolic stability in liver microsomes (unknown origin) assessed as intrinsic clearance
# Format: ADME, Microsome
measure-name: log10(Intrinsic clearance) (log10 of the value in mL/min/g)
Log scale reminder: Intrinsic clearance in mL/min/g, then log10 taken.

Example results:
mol: COc1nc(OCc2cccc(-c3ccccc3)c2C)ccc1CNCCNC(C)=O
log10(Intrinsic clearance): 1.56
--
mol: Cc1c(-c2ccccc2)cccc1[C@H]1C[C@@H]1c1cc(OCc2cccc(C#N)c2)c(CNC(C)(C)C(=O)O)cc1Cl
log10(Intrinsic clearance): 0.61
--
mol: Cc1c(COc2cc(OCc3cccc(C#N)c3)c(CN3C[C@H](O)C[C@@H]3C(=O)O)cc2Cl)cccc1-c1ccc2c(c1)OCCO2
log10(Intrinsic clearance): 3.20
--
mol: Cc1c(COc2nc(OCc3cccc(C#N)c3)c(CNC(C)(C)CCC(=O)O)cc2Cl)cccc1-c1ccccc1
log10(Intrinsic clearance): 1.68

With those in mind, consider the next compound.
// query Please report the measured log10(Intrinsic clearance) for Cc1c(-c2ccccc2)cccc1[C@@H]1C[C@H]1c1cc(OCc2cccc(C#N)c2)c(CNC(C)(C)C(=O)O)cc1Cl
// result -0.15
